Biological target: MgCA (Malassezia globosa)
Construct: gene MGL_1814
Sequence (A8Q1N3 1-241): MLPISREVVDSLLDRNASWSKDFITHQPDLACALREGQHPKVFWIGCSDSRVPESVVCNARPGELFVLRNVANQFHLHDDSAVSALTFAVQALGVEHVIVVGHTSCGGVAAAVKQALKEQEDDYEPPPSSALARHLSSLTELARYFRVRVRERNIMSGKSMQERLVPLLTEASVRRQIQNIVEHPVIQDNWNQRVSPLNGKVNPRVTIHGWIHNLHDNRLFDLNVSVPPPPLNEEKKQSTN
Assay: stopped-flow CO2 hydrase assay
Assay type: biochemical
Assignment: determine reported Ki for the given molecules.
Please reply with the bare figure in nM and do not write the unit itself.

# input Query Ki for "NS(=O)(=O)c1ccc(NC(=[Se])Nc2ccccc2Cl)cc1"
# output 655

# input Respond only with Ki recorded for "NS(=O)(=O)c1ccc(NC(=[Se])Nc2cccc(C(F)(F)F)c2)cc1"
# output 803

# input Name the recorded Ki of the molecule listed here: "NS(=O)(=O)c1ccc(CCNC(=[Se])Nc2ccc(I)cc2)cc1"
# output 689

# input Identify the reported Ki for the following entry. "NS(=O)(=O)c1ccc(NC(=[Se])Nc2ccccc2F)cc1"
# output 720

# input Query Ki for "NS(=O)(=O)c1cccc(NC(=[Se])Nc2ccc(F)cc2)c1"
# output 700

# input Indicate its recorded Ki; the molecule in question is "NS(=O)(=O)c1cccc(NC(=[Se])Nc2ccccc2)c1"
# output 783

# input Supply measured Ki of "NS(=O)(=O)c1ccc(CCNC(=[Se])Nc2ccccc2Cl)cc1" in your reply.
# output 812

# input // fetch Ki given entry "NS(=O)(=O)c1ccc(CCNC(=[Se])Nc2ccc(Br)cc2)cc1"
# output 683
